Test system: Staphylococcus aureus
assay.name: Antibacterial activity against methicillin-resistant Staphylococcus aureus ATCC2858 incubated for 18 to 20 hrs by double dilution method
Assay type: functional
condition.parameters: time 18-20 hrs
observable: MIC (µM)
One number for each entry, in µM.

Below, 5 compounds whose answers are already recorded.
compound	output.unit	MIC
O=C(Nc1ccc(Sc2nc3ccccc3s2)c(Cl)c1)Nc1ccccc1C(F)(F)F	µM	3.12
O=C(Nc1ccc(Sc2nc3ccccc3s2)cc1)N1CCOCC1	µM	200
O=C(Nc1ccc(C(F)(F)F)cc1)Nc1ccc(Sc2nc3ccccc3s2)c(Cl)c1	µM	0.78
O=C(Nc1ccccc1C(F)(F)F)N1CCC(Sc2nc3ccccc3s2)CC1	µM	3.12
O=C(Nc1ccc(F)c(F)c1)Nc1ccc(Sc2nc3cc(Cl)ccc3s2)c(Cl)c1	µM	0.78

# map each compound to its MIC
1. CC(=O)NC[C@H]1CN(c2ccc(N3CCOCC3)c(F)c2)C(=O)O1 [LINEZOLID]
2. CN[C@H](CC(C)C)C(=O)N[C@H]1C(=O)N[C@@H](CC(N)=O)C(=O)N[C@H]2C(=O)N[C@H]3C(=O)N[C@H](C(=O)N[C@H](C(=O)O)c4cc(O)cc(O)c4-c4cc3ccc4O)[C@H](O)c3ccc(c(Cl)c3)Oc3cc2cc(c3O[C@@H]2O[C@H](CO)[C@@H](O)[C@H](O)[C@H]2O[C@H]2C[C@](C)(N)[C@H](O)[C@H](C)O2)Oc2ccc(cc2Cl)[C@H]1O [VANCOMYCIN]
3. O=C(Nc1ccc(Sc2nc3ccccc3s2)c(Cl)c1)Nc1ccc(Cl)cc1Cl
4. CC1COc2c(N3CCN(C)CC3)c(F)cc3c(=O)c(C(=O)O)cn1c23 (configuration not stated) [OFLOXACIN]
5. O=C(Nc1ccc(Sc2nc3ccccc3s2)cc1)Nc1ccc(C(F)(F)F)cc1
6. O=C(Nc1ccc(F)cc1)Nc1ccc(Sc2nc3ccccc3s2)c(Cl)c1
7. O=C(Nc1ccc(C(F)(F)F)cc1)Nc1ccc(Sc2nc3cc(Cl)ccc3s2)c(Cl)c1

6.25
0.78
0.78
1.56
0.39
1.56
0.78

# map each compound to its MIC
1. CN1CCN(C(=O)Nc2ccc(Sc3nc4ccccc4s3)c(Cl)c2)CC1
2. CO[C@@]1(NC(=O)Cc2cccs2)C(=O)N2C(C(=O)O)=C(COC(N)=O)CS[C@@H]21 [CEFOXITIN]

100
100

The measured values listed here are drawn from ChEMBL document CHEMBL5154851.
